# Test system: ORYSAT Rice, Tebonnet
# method summary: Rice tolerance, flooded paddy (Table IV)
# Type: in vivo, Oryza sativa
# Parameters: scale not given here
# test parameters: 0.2500 kg/ha, crop tolerance
# Source text: Plastic containers containing weeds which are 3 to 5 cm tall and rice seedlings at the 1.5 to 2.5 leaf stage are flooded with water. The water is maintained at 1.5 to 3 cm above the soil surface for the duration of the experiment. Test compounds are applied as aqueous/acetone mixtures 50/50 v/v directly into the flood water to provide the equivalent of about 0.0313 to 0.500 kg/ha of active ingredient. […] The compounds evaluated are reported by compound number given in Example 185.
Listed below: herbicidal effect rating values for each entry.
Response field accepts a number only; no unit should be typed.

>  <compound>
COC(=O)COc1ccc(C)cc1-c1nsc2ccc(-n3c(=O)cc(C(F)(F)F)n(C)c3=O)cc12

>  <readout value>
7.0

$$$$
>  <compound>
COC(=O)COc1cc(C)ccc1-c1nsc2ccc(-n3c(=O)cc(C(F)(F)F)n(C)c3=O)cc12

>  <readout value>
8.0

$$$$
>  <compound>
CCOc1cccc(-c2nsc3ccc(-n4c(=O)cc(C(F)(F)F)n(C)c4=O)cc23)c1

>  <readout value>
4.0

$$$$
>  <compound>
Cc1cc(O)c(-c2nsc3ccc(-n4c(=O)cc(C(F)(F)F)n(C)c4=O)cc23)cc1C

>  <readout value>
1.0

$$$$

Incoming: State its herbicidal effect rating for this compound: `COc1cc2c(cc1-c1nsc3ccc(-n4c(=O)cc(C(F)(F)F)n(C)c4=O)cc13)CCC2`
Outgoing: 7.0

Incoming: For the compound `COC(=O)COc1ccc(C)cc1-c1noc2ccc(-n3c(=O)cc(C(F)(F)F)n(C)c3=O)c(Cl)c12` , give its measured herbicidal effect rating value.
Outgoing: 0.0

Incoming: Return value of herbicidal effect rating for input `CCCCC(=O)c1nsc2ccc(-n3c(=O)cc(C(F)(F)F)n(C)c3=O)cc12` , no commentary.
Outgoing: 7.0

Incoming: Fill in herbicidal effect rating for record `COc1ccc(C)cc1-c1nsc2ccc(-n3c(=O)cc(C(F)(F)F)n(C)c3=O)cc12`
Outgoing: 6.0

Incoming: Dear colleague, please send me the reported herbicidal effect rating for COC(=O)C(C)Oc1cc(C)ccc1-c1nsc2ccc(-n3c(=O)cc(C(F)(F)F)n(C)c3=O)cc12 (stereo not drawn) when you can.
Outgoing: 9.0

Incoming: For `COc1cc(C)c(I)cc1-c1nsc2ccc(-n3c(=O)cc(C(F)(F)F)n(C)c3=O)cc12` , write its herbicidal effect rating.
Outgoing: 2.0

====

# Tested on: CYPSE Flatsedge
# method summary: Preemergence weed control, flooded paddy (Table III)
# Assay type: in vivo, Cyperus serotinus
# Set-up: scale not given here
# test parameters: 0.1250 kg/ha
quantity name: herbicidal effect rating
No unit in the answer, please; the number alone is enough.

Incoming: Indicate the recorded herbicidal effect rating value for this compound: COC(=O)C(C)Oc1cc(C)ccc1-c1nsc2ccc(-n3c(=O)cc(C(F)(F)F)n(C)c3=O)cc12 (centres unmarked) [Compound 9]
Outgoing: 9.0

====

# System: Soybean, Glycine max
# method summary: Preemergence herbicidal evaluation, GLXMA
# Assay type: in vivo, (L.) Merr.
# test parameters: 0.2500 kg/ha
Each item that follows carries a reported herbicide rating (0-9).
The response must contain the number and no unit.

Incoming: Answer with the recorded herbicide rating (0-9) for the compound listed here: `COC(=O)COc1ccc(C)cc1-c1nsc2ccc(-n3c(=O)cc(C(F)(F)F)n(C)c3=O)cc12`
Outgoing: 7.0

Source: patent US6156700A
